Target: Muscarinic acetylcholine receptor M2 (Homo sapiens, UniProt P08172)
Sequence (P08172 whole entry): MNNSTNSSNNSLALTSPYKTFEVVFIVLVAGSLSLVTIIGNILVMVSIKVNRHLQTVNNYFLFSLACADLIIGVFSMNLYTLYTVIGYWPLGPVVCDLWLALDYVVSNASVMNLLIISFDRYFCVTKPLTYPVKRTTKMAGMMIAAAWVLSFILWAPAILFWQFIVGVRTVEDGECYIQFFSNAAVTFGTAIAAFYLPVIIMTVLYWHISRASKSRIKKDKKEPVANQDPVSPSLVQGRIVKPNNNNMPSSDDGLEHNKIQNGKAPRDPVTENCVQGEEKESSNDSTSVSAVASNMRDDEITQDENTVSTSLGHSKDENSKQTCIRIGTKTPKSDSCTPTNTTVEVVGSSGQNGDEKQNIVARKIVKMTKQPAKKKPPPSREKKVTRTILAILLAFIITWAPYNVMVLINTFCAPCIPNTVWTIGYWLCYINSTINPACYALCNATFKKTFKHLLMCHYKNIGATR
OBSERVATION_TYPE: pKi
// pKi: -log10(molar conc.)

What measured pKi goes with CCCCCCCCCCCC(OC(=O)C(CCCCN(O)C(C)=O)NC(=O)c1coc(-c2ccccc2O)n1)C(C)C(=O)NC1CCCCN(O)C1=O (stereo unspecified) ?
6.20
